- TESTED_ON: Glutamate receptor ionotropic, NMDA 2B (Mus musculus, UniProt P35438+Q01097)
- Sequence (Q01097 whole entry, one chain of several): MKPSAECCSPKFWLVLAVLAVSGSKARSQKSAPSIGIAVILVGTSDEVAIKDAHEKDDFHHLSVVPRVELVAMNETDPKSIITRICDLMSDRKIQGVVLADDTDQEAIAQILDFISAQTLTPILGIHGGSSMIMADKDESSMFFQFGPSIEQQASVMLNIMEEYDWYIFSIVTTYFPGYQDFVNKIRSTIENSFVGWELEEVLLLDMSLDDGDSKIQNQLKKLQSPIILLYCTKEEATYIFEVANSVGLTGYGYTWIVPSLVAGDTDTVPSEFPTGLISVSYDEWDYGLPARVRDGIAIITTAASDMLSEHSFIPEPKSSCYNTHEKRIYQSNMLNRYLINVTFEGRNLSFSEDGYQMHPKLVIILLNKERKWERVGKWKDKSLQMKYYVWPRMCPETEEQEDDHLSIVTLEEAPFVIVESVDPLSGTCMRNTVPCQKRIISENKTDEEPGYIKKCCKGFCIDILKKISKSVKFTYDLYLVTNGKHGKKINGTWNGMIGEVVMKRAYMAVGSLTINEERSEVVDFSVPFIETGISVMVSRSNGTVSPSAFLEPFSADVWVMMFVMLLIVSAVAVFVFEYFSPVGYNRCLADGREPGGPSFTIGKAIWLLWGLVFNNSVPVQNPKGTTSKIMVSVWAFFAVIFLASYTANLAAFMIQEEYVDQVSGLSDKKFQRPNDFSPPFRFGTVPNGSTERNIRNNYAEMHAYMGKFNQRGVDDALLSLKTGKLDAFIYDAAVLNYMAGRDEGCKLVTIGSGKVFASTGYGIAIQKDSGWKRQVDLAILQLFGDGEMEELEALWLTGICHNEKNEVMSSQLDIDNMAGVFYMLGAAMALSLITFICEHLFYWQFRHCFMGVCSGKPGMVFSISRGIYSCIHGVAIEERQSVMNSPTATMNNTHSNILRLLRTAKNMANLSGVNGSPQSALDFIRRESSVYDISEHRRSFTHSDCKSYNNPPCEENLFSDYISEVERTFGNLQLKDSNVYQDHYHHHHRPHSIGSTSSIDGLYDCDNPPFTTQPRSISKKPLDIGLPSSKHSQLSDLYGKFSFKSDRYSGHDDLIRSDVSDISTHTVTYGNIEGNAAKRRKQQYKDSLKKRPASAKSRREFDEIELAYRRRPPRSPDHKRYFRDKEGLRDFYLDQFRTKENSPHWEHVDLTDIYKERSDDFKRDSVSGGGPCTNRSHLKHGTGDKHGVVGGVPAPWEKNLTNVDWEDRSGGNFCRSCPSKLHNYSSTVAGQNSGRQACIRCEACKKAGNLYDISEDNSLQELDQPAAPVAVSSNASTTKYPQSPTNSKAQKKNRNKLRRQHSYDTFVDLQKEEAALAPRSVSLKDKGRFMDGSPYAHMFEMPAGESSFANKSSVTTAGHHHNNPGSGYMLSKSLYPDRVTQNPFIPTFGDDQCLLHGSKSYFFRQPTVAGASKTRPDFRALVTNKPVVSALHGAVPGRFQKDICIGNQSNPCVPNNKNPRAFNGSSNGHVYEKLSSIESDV
- TEST_NAME: Displacement of [3H]ifenprodil from GluN2B in mouse LTK cells assessed as inhibition constant measured after 120 mins by scintillation counting method
ENDPOINT: pKi
By convention, pKi is the negative base-10 log of a molar concentration.

# pKi (molecule: COc1ccc(CC2CCN(C[C@](C)(O)[C@@H]3CC[C@@H](C)C[C@H]3O)CC2)cc1 ) is 7.35

molecule C[C@@H]1CC[C@@H]2[C@H](C1)OCO[C@]2(C)CN1CCC(Cc2ccccc2)CC1 , pKi observed: 6.57

Form field pKi, entry C[C@@H]1CC[C@@H]2[C@H](C1)OCO[C@]2(C)CNCCCCc1ccccc1 : 6.58

The measured pKi associated with CN1CCN(CCc2ccc(Cl)c(Cl)c2)CC1 reads 7.31

Entry C[C@@H]1CC[C@@H]([C@@](C)(O)CN2CCC(Cc3ccccc3)CC2)[C@H](O)C1 ; pKi = 7.28

Origin of measurements: ChEMBL document CHEMBL5380826
